All values here come from PubChem BioAssay (Tox21).

test: qHTS assay to identify small molecule antagonists of the androgen receptor (AR) signaling pathway using the MDA cell line in the presence of 0.5 nM R1881 - cell viability counter screen (AID 1259242); details: MDA-kb2 viability, CellTiter-Fluor protease fluorescence, 16 h; series mostly up to 92.4 µM; also: nearly all actives have a fitted effect of over 45% in size; also: potency is read from the fitted curve at half-maximal effect
Records with an inconclusive call do not appear. Active and inactive are the calls of the source. Calls follow the shape of the dose curve; as a rule, active = well fitted cell-killing curve with a large enough effect in the repeat runs; inconclusive = weak or mixed curves, or effect the other way; inactive = flat fitted curve, though single readings scatter.
Assay Metric: Potency

{"columns": ["Compound", "Assay Metric", "Reported Value"],
 "data": [
  ["CC[C@H](C)[C@H]1O[C@]2(C=C[C@@H]1C)C[C@@H]1C[C@@H](C/C=C(\\C)[C@@H](O[C@H]3C[C@H](OC)[C@@H](O[C@H]4C[C@H](OC)[C@@H](O)[C@H](C)O4)[C@H](C)O3)[C@@H](C)/C=C/C=C3\\CO[C@@H]4[C@H](O)C(C)=C[C@@H](C(=O)O1)[C@]34O)O2", "Potency", "36.1 µM (active)"],
  ["FC(F)(F)c1cccc(C2=CCN(CCc3ccc4ccccc4c3)CC2)c1", "Potency", "inactive"],
  ["COP(=O)(CCC(=O)NCO)OC", "Potency", "inactive"],
  ["CC(=O)[O-].CC(=O)[O-].[Hg+2]", "Potency", "7.7 µM (active)"],
  ["COS(=O)(=O)c1ccc(C)cc1", "Potency", "inactive"],
  ["BrC(Br)C(Br)(Br)Br", "Potency", "inactive"],
  ["CC(C)C(=O)Cl", "Potency", "inactive"],
  ["N#CCCO", "Potency", "inactive"],
  ["Fc1cccc(Cl)c1CCl", "Potency", "inactive"],
  ["CCN(CC)c1c([N+](=O)[O-])cc(C(F)(F)F)c(N)c1[N+](=O)[O-]", "Potency", "inactive"],
  ["CCCCCCCCCCCCCN1CC(C)OC(C)C1 (stereo unspecified)", "Potency", "inactive"]
]}
